System: Mus musculus
Assay: Cmax in BALB/C mouse assessed as N-(3-bromophenyl)-1-(2-chloro-2-phenylethyl)-6-(2-morpholinoethylthio)-1H-pyrazolo[3,4-d]pyrimidin-4-amine level at 50 mg/kg administered through oral gavage as methylcellulose formulation measured at 1 to 24 hrs post dose by UV/LC-MS analysis
Format: ADME, organism-based
Set-up: dose 50 mg/kg, route oral
Settings: in vivo
Measurement label: Cmax (µM)
Please reply with the bare figure in µM and do not write the unit itself.

Prompt: Report Cmax for ClC(Cn1ncc2c(Nc3cccc(Br)c3)nc(SCCN3CCOCC3)nc21)c1ccccc1 (stereo unspecified) tested on Mus musculus.
Completion: 5.35

====

Assay: Cmax in BALB/C mouse at 50 mg/kg, ip administered via bolus dose using DMSO formulation measured at 1 to 24 hrs post dose by UV/LC-MS analysis
Assay type: ADME, organism-based
Design: dose 50 mg/kg, route intraperitoneal
Settings: in vivo
Measurement label: Cmax (µM)
Please reply with the bare figure in µM and do not write the unit itself.

{"columns": ["Compound", "Cmax [µM]"],
 "data": [
  ["CN1CCN(CCOC(=O)N(c2cccc(Br)c2)c2nc(SCCN3CCOCC3)nc3c2cnn3CC(Cl)c2ccccc2)CC1 (configuration not stated)", 8.78]
]}

Prompt: Requested read-out: Cmax. Entry: ClC(Cn1ncc2c(Nc3cccc(Br)c3)nc(SCCN3CCOCC3)nc21)c1ccccc1 (configuration not stated)
Completion: 6.83

====

Assay: physchem
Settings: PAMPA
Description: Apparent permeability at 500 uM after 5 hrs by Blood-Brain Barrier-based PAMPA
Each record here notes measured Papp at 5 h, 500 µM.

A selection of reference data follows.
{"columns": ["Molecule", "Papp at 5 h, 500 µM"],
 "data": [
  ["CSc1nc(N(C(=O)OC(Cc2ccccc2)CN2CCN(C)CC2)c2cccc(Br)c2)c2cnn(CC(C)c3ccccc3)c2n1 (centres undefined)", "1.01 ×10⁻⁶ cm/s"],
  ["CSc1nc(Nc2cccc(Cl)c2)c2cnn(CCc3ccccc3)c2n1", "1.48 ×10⁻⁶ cm/s"]
]}

Prompt: Requested read-out: Papp at 5 h, 500 µM. Entry: CSc1nc(Nc2cccc(Br)c2)c2cnn(CC(C)c3ccccc3)c2n1 (centres undefined)
Completion: 0.5 ×10⁻⁶ cm/s

Prompt: Follow-up entry: CSc1nc(N(C(=O)OCCN2CCN(C)CC2)c2cccc(Cl)c2)c2cnn(CCc3ccccc3)c2n1
Completion: 4.3 ×10⁻⁶ cm/s

Prompt: Follow-up entry: CSc1nc(N(C(=O)OC(C)CN2CCN(C)CC2)c2cccc(Br)c2)c2cnn(CC(C)c3ccccc3)c2n1 (centres undefined)
Completion: 2.39 ×10⁻⁶ cm/s

Prompt: Follow-up entry: Clc1ccccc1CNc1ncnc2c1cnn2CC(Cl)c1ccc(Br)cc1 (centres undefined)
Completion: 13.2 ×10⁻⁶ cm/s

Prompt: Follow-up entry: CSc1nc(N(C(=O)OCCN2CCN(C)CC2)c2cccc(Br)c2)c2cnn(CC(C)c3ccccc3)c2n1 (centres undefined)
Completion: 1.89 ×10⁻⁶ cm/s

Prompt: Follow-up entry: CN1CCN(CCOC(=O)N(c2cccc(Br)c2)c2nc(SCCN3CCOCC3)nc3c2cnn3CC(Cl)c2ccccc2)CC1 (centres undefined)
Completion: 2.91 ×10⁻⁶ cm/s

Prompt: Follow-up entry: CSc1nc(NCCc2ccccc2)c2cnn(CC(Cl)c3ccccc3)c2n1 (centres undefined)
Completion: 6.17 ×10⁻⁶ cm/s

====

Test: physchem
Conditions: aqueous
Description: Aqueous solubility of compound at 1 mg after 24 hrs by UV/LC-MS analysis
Measurement label: log10 of solubility at 24 h (log10 of the value in µg/mL)
Values reflect log10 of reported solubility at 24 h (µg/mL).

A selection of reference data follows.
{"columns": ["Compound", "log10 of solubility at 24 h"],
 "data": [
  ["CN1CCN(CCOC(=O)N(c2ccccc2)c2ncnc3c2cnn3CC(Cl)c2ccc(Br)cc2)CC1 (centres undefined)", 1.62],
  ["CSc1nc(N(C(=O)OC(Cc2ccccc2)CN2CCN(C)CC2)c2cccc(Br)c2)c2cnn(CC(C)c3ccccc3)c2n1 (centres undefined)", 0.00],
  ["CSc1nc(N(C(=O)OC(C)CN2CCN(C)CC2)c2cccc(Br)c2)c2cnn(CC(C)c3ccccc3)c2n1 (centres undefined)", 0.53],
  ["ClC(Cn1ncc2c(Nc3ccccc3)ncnc21)c1ccc(Br)cc1 (centres undefined)", -1.22],
  ["CSc1nc(N(CCc2ccccc2)C(=O)OCCN2CCN(C)CC2)c2cnn(CC(Cl)c3ccccc3)c2n1 (centres undefined)", 2.03]
]}

Prompt: Requested read-out: log10 of solubility at 24 h. Entry: CSc1nc(NCCc2ccccc2)c2cnn(CC(Cl)c3ccccc3)c2n1 (centres undefined)
Completion: -1.15

Prompt: Follow-up entry: CSc1nc(Nc2cccc(Cl)c2)c2cnn(CC(Cl)c3ccccc3)c2n1 (centres undefined)
Completion: -0.89

Prompt: Follow-up entry: CCCCNc1nc(SCC)nc2c1cnn2CC(Cl)c1ccccc1 (centres undefined)
Completion: -1.30
